# Tested On: SOS1 catalytic domain (residues 564-1049) (Homo sapiens)
# Sequence (Q07889 564-1049): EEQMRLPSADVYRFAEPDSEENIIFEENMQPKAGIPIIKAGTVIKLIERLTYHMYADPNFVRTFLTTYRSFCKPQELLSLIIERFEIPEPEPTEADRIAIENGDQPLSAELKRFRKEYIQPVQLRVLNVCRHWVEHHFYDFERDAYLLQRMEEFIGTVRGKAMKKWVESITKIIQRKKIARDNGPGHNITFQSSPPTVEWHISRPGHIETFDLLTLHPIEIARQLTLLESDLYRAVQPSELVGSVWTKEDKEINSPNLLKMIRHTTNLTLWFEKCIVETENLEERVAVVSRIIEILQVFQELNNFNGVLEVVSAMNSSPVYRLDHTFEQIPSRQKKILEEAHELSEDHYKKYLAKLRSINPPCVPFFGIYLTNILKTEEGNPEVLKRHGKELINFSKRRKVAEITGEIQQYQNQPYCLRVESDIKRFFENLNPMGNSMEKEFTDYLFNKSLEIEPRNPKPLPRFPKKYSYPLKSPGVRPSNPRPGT
pIC50: −log10 of the molar value.
Quick list: pIC50 per entry.

[
  {
    "Compound": "C[C@@H](Nc1nc(Cl)nc2c1CN(C(=O)C1CC3CCC(C1)O3)C2)c1cc(N)cc(C(F)(F)F)c1 (stereo partly drawn) [Example 81]",
    "pIC50": "> 6.00"
  },
  {
    "Compound": "COc1ccc(C(=O)N2CCc3nc(Cl)nc(N[C@H](C)c4cc(N)cc(C(F)(F)F)c4)c3C2)nc1 [Example 245]",
    "pIC50": "< 6.00"
  },
  {
    "Compound": "C[C@@H](Nc1nc(Cl)nc2c1CN(S(=O)(=O)C1CNC1)C2)c1cc(N)cc(C(F)(F)F)c1 [Example 48]",
    "pIC50": "> 6.00"
  },
  {
    "Compound": "C[C@@H](Nc1nc(OC2COC2)nc2c1CN(C(=O)N1CCOCC1)C2)c1cc(N)cc(C(F)(F)F)c1 [Example 133]",
    "pIC50": "< 6.00"
  },
  {
    "Compound": "C[C@@H](Nc1nc(Cl)nc2c1CN(C(=O)C1CN(C)CCO1)C2)c1cccc(C(F)F)c1F (stereo partly drawn) [Example 298]",
    "pIC50": "> 6.00"
  },
  {
    "Compound": "COC1CN([C@H]2CCc3nc(Cl)nc(N[C@H](C)c4cc(N)cc(C(F)(F)F)c4)c3C2)C1 [Example 432]",
    "pIC50": "> 6.00"
  },
  {
    "Compound": "C[C@@H](Nc1nc(Cl)nc2c1CN(C(=O)C1(C#N)CNC1)C2)c1cccc(C(F)F)c1F [Example 328]",
    "pIC50": "> 6.00"
  },
  {
    "Compound": "C[C@@H](Nc1nc(Cl)nc2c1CN(C(=O)N1CCc3ncccc31)C2)c1cccc(C(F)(F)F)c1 [Example 371]",
    "pIC50": "> 6.00"
  },
  {
    "Compound": "C[C@@H](Nc1nc(Cl)nc2c1CN(C(=O)C1(c3ncccn3)CC1)CC2)c1cc(N)cc(C(F)(F)F)c1 [Example 191]",
    "pIC50": "< 6.00"
  },
  {
    "Compound": "C[C@@H](Nc1nc(Cl)nc2c1CN(C(=O)N1CCNc3ncccc31)C2)c1cccc(C(F)(F)F)c1 [Example 370]",
    "pIC50": "> 6.00"
  },
  {
    "Compound": "C[C@@H](Nc1nc(Cl)nc2c1CN(C(=O)c1ncc[nH]1)C2)c1cc(N)cc(C(F)(F)F)c1 [Example 95]",
    "pIC50": "< 6.00"
  },
  {
    "Compound": "C[C@@H](Nc1nc(Cl)nc2c1CN(C(=O)c1ccc(OC(F)F)cn1)C2)c1cc(N)cc(C(F)(F)F)c1 [Example 61]",
    "pIC50": "< 6.00"
  },
  {
    "Compound": "C[C@@H](Nc1nc(I)nc2c1CN(C(=O)N1CCOCC1)C2)c1cc(N)cc(C(F)(F)F)c1 [Example 134]",
    "pIC50": "> 6.00"
  },
  {
    "Compound": "C[C@@H]1OCC2(CCN(C(=O)N3Cc4nc(Cl)nc(N[C@H](C)c5cccc(C(F)F)c5F)c4C3)CC2)[C@@H]1N [Example 424]",
    "pIC50": "> 6.00"
  },
  {
    "Compound": "C[C@@H](Nc1nc(Cl)nc2c1CN(C(=O)c1cnn(C3CCOCC3)c1)C2)c1cc(N)cc(C(F)(F)F)c1 [Example 96]",
    "pIC50": "< 6.00"
  }
]

Values from patent US20230096028A1
